TARGET: Prostaglandin G/H synthase 1 (Ovis aries)
Sequence (P05979 whole entry): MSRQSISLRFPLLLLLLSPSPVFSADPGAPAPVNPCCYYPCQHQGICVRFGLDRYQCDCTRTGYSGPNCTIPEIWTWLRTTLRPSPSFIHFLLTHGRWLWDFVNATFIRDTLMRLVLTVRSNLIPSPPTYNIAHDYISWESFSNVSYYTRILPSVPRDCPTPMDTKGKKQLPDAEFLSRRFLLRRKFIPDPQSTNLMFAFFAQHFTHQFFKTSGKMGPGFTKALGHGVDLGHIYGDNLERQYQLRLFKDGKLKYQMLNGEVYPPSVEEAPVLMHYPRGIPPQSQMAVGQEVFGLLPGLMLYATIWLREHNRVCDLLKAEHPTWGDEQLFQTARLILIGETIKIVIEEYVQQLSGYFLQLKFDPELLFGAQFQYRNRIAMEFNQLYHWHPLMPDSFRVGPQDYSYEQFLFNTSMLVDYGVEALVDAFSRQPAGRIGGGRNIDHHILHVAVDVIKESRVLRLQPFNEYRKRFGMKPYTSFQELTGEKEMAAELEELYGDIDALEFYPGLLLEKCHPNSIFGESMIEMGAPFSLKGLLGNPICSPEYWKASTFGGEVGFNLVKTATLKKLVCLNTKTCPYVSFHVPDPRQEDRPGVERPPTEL
EXPERIMENT NOTES: Inhibition of ovine COX1 assessed as reduction in PGH2 production by enzyme immunoassay
Threshold-based label: IC50 under 1000 nM gives YES, IC50 not under 1000 nM gives NO.

compound=CS(=O)(=O)c1ccc(C(=O)c2ccc(Cl)cc2)cc1 qualitative_label=NO
compound=CS(=O)(=O)c1ccc(C(=O)c2ccoc2)cc1 qualitative_label=YES
compound=COc1ccc2c(c1)c(S(C)(=O)=O)c(C)n2C(=O)c1ccc(Cl)cc1 qualitative_label=YES
compound="CN1c2ccccc2Sc2ccc(CC(=O)O)cc21 [METIAZINIC ACID]" qualitative_label=NO
compound=CS(=O)(=O)c1cccc(Oc2ccccc2)c1 qualitative_label=NO
compound="CC(C(=O)O)c1cccc(C(=O)c2ccccc2)c1 (stereo not given) [KETOPROFEN]" qualitative_label=YES
compound="CC(C(=O)O)c1cccc(Oc2ccccc2)c1 (stereo not given) [FENOPROFEN]" qualitative_label=NO
compound=CC(C)Cc1ccc(S(C)(=O)=O)cc1 qualitative_label=NO
compound=CN1c2ccccc2Sc2ccc(S(C)(=O)=O)cc21 qualitative_label=NO
compound=COc1ccc2cc(S(C)(=O)=O)ccc2c1 qualitative_label=YES

Data provenance is ChEMBL document CHEMBL4229432.
